Give diseased area ratio to non-treated section for every item shown.
System: Sphaerotheca fuliginea
Assay type: in vivo
Test settings: partner fungicide alone 125 ppm
Numbers only.

In the examples that follow, each entry is paired with its recorded diseased area ratio to non-treated section.
>>> assay_result("COC(=O)NC(=S)Nc1ccccc1NC(=S)NC(=O)OC [thiophanate-methyl]")
65.0
>>> assay_result("CC#Cc1cc(C)nc(Nc2ccccc2)n1")
0.5
>>> assay_result("O=C1c2ccccc2C(=O)N1SC(Cl)(Cl)Cl")
84.4
>>> assay_result("Cc1ccc(-c2c(Cl)nc(C#N)n2S(=O)(=O)N(C)C)cc1 [cyazofamid, reference compound]")
57.5

Fill in diseased area ratio to non-treated section for each of the 4 molecules listed.
1. CC1(C(=O)Nc2ccc(O)c(Cl)c2Cl)CCCCC1
2. CO/C=C(/C(=O)OC)c1ccccc1Oc1cc(Oc2ccccc2C#N)ncn1
3. CC(C)NC(=O)N1CC(=O)N(c2cc(Cl)cc(Cl)c2)C1=O
4. O=[N+]([O-])c1cc(C(F)(F)F)c(Cl)c([N+](=O)[O-])c1Nc1ncc(C(F)(F)F)cc1Cl [fluazinam, reference compound]

Result:
52.5
35.0
60.0
17.5

Query: Param item = CC12CC1(C)C(=O)N(c1cc(Cl)cc(Cl)c1)C2=O (stereo not drawn) ; retrieve measured diseased area ratio to non-treated section.
Result: 85.0

----------
Test system: Sphaerotheca fuliginea
Assay type: in vivo
Test settings: single use at 100 ppm
Where a name gives a salt, the structure may show the parent alone.
Measure name: diseased area ratio to non-treated section (experimental value)
Numbers only.

In the examples that follow, each entry is paired with its recorded diseased area ratio to non-treated section (experimental value).
>>> assay_result("COC(=O)N(OC)c1ccccc1COc1ccn(-c2ccc(Cl)cc2)n1")
100
>>> assay_result("CCCOC(=O)NCCCN(C)C [propamocarb hydrochloride]")
95.0
>>> assay_result("O=C([O-])O.[K+] [potassium bicarbonate]")
25.0

Query molecule follows.
Query: Param item = COP(=S)(OC)Oc1c(Cl)cc(C)cc1Cl ; retrieve measured diseased area ratio to non-treated section (experimental value).
Result: 80.0

----------
Test system: Erysiphe graminis
Measurement description: Test on preventive effect against wheat powdery mildew (Test Example 1)
Assay type: in vivo
Test settings: fungicide (b) alone 0.5 ppm
Give diseased area ratio to non-treated section for every item shown.
Answers are plain numbers.

In the examples that follow, each entry is paired with its recorded diseased area ratio to non-treated section.
>>> assay_result("FC(F)C(F)(F)OCC(Cn1cncn1)c1ccc(Cl)cc1Cl (stereo not shown)")
52.5
>>> assay_result("Fc1ccc([C@]2(Cn3cncn3)O[C@H]2c2ccccc2Cl)cc1 (racemic)")
21.2
>>> assay_result("CC(C1CC1)C(O)(Cn1cncn1)c1ccc(Cl)cc1 (stereo not shown)")
60.0

Query compound follows.
Query: Param item = CC(C)(C)C(O)(CCc1ccc(Cl)cc1)Cn1cncn1 (stereo not shown) ; retrieve measured diseased area ratio to non-treated section.
Result: 10.0

----------
Tested on: Erysiphe graminis
Measurement description: Test on preventive effect against wheat powdery mildew (Test Example 1)
Assay type: in vivo
Test settings: fungicide (b) alone 12.5 ppm
Measure name: diseased area ratio to non-treated section
Numbers only.

>>> assay_result("CC(Cc1ccc(C(C)(C)C)cc1)CN1C[C@@H](C)O[C@@H](C)C1 (stereo partly shown)")
36.4
>>> assay_result("CO/N=C(/C(=O)OC)c1ccccc1COc1ccccc1C")
4.9
>>> assay_result("CC(Cc1ccc(C(C)(C)C)cc1)CN1CCCCC1 (stereo not shown)")
27.5

Query compound follows.
Query: Lab note: need diseased area ratio to non-treated section with Erysiphe graminis for entry CCCN(CC)CC1COC2(CCC(C(C)(C)C)CC2)O1 (stereo not shown) , please look it up.
Result: 97.0

----------
System: Erysiphe graminis
Measurement description: Test on preventive effect against wheat powdery mildew (Test Example 1)
Format: in vivo
Test settings: fungicide (b) alone 500 ppm
Give diseased area ratio to non-treated section for every item shown.
Numbers only.

In the examples that follow, each entry is paired with its recorded diseased area ratio to non-treated section.
>>> assay_result("C[C@H]1O[C@H](O[C@H]2[C@H](O)[C@@H](O)[C@@H](O)[C@H](O)[C@@H]2O)[C@@H](N)C[C@@H]1NC(=N)C(=O)O")
55.0
>>> assay_result("S1SSSSSSS1")
40.0
>>> assay_result("N#Cc1c[nH]cc1-c1cccc2c1OC(F)(F)O2")
85.0
>>> assay_result("CCO[PH](=O)O")
97.5
>>> assay_result("CC(C)Oc1cccc(NC(=O)c2ccccc2C(F)(F)F)c1")
7.5

Query compound follows.
Query: Param item = Cc1cccc2sc3nncn3c12 ; retrieve measured diseased area ratio to non-treated section.
Result: 50.0

----------
Tested on: Sphaerotheca fuliginea
Type: in vivo
Test settings: partner fungicide alone 4 ppm
Measure name: diseased area ratio to non-treated section
Numbers only.

In the examples that follow, each entry is paired with its recorded diseased area ratio to non-treated section.
>>> assay_result("N=C(N)NCCCCCCCCNCCCCCCCCNC(=N)N")
65.0
>>> assay_result("N#Cc1c(Cl)c(Cl)c(Cl)c(C#N)c1Cl")
77.5
>>> assay_result("CCCCC(O)(Cn1cncn1)c1ccc(Cl)cc1Cl (stereo not shown)")
85.0

Query: Param item = CON=C(C(=O)OC)c1ccccc1CON=C(C)c1cccc(C(F)(F)F)c1 ; retrieve measured diseased area ratio to non-treated section.
Result: 85.0
